Origin of the recorded values: PubChem BioAssay AID1159580

Experiment: chemical genetic growth profiling, strain panel (AID 1159580);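 further: tested at 20 µM; growth read once vehicle control cultures reached saturation at 30 °C; 1 = growth at the plate median or of vehicle wells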
Settings: S. cerevisiae deletion strains, growth OD, locus YOR329C, strain SCD5
About 2,000 (36%) of roughly 5,500 compounds were called active. Roughly 18% stayed inconclusive and do not appear here. No stated cut-off is given here; in the data, active means normalized growth mostly below about 0.91 (no sharp cut-off); inconclusive means no clear call, values can overlap the other calls; inactive means mostly above about 0.92. The list shows a part of the results.
Choose one outcome from this list and give only that: active, inactive

Example entries and their recorded answers appear below.
N#C/C(=N/Nc1ccc(F)cc1)S(=O)(=O)c1ccc(Cl)cc1; inactive
O=C(Nc1cccc(C(F)(F)F)c1)c1cncc(C#Cc2ccccc2)c1; inactive
CC(=O)/C(C#N)=N\Nc1ccc(F)cc1; active
Fc1cc(I)ccc1Nc1ccnc2cc(Cl)ccc12; inactive
N#C/C(=N/Nc1ccc(F)cc1)C(=O)c1ccccc1; active

Could you now consider this next compound?
For N#C/C(=N/Nc1ccccc1)C(=O)c1ccccc1OC(F)(F)F , what call appears in the results of this test? inactive

###

Assay: chemical genetic growth profiling, strain panel (AID 1159580)
Details: S. cerevisiae deletion strains, growth OD, locus YLR418C, strain cdc73, stronger effect = lower value
Hit rate of the full screen: of about 5,500 compounds, about 2,000 (36%) were called active. Not shown: some 18% with an inconclusive outcome. The list shows a part of the results.
Readout Name: normalized growth

Recorded results for 4 compounds are shown here.
CN1CC(CO)=C[C@@H]2c3cccc4[nH]cc(c34)C[C@H]21; 0.966 (inactive)
C=C1CCC2[C@](C)(CO)[C@H](O)CC[C@@]2(C)[C@@H]1C/C=C1/C(=O)OC[C@H]1O (stereo not given in full); 1.07 (inactive)
O=C1C(Cl)=C(Cl)C(=O)C(Cl)=C1Cl; 0.292 (active)
Cc1ccc(S(=O)(=O)NC(=O)NN2CCCCCC2)cc1; 0.989 (inactive)

Any idea what its normalized growth is? The compound is CCCCNC(=O)NS(=O)(=O)c1ccc(C)cc1 1.01 (inactive)

Can you share its normalized growth? I mean this compound: CC1(C)CCC[C@@]2(C)C1[C@@H](O)C[C@]1(C)C2CC[C@@H]2[C@@]3(C)CC[C@H](C(C)(C)O)[C@@H]3CC[C@@]21C (stereo not given in full) 1.06 (inactive)

###

Assay: chemical genetic growth profiling, strain panel (AID 1159580)
Conditions: S. cerevisiae deletion strains, growth OD, locus YLR133W, strain CKI1, stronger effect = lower value
Screen size: about 5,500 compounds; about 2,000 (36%) were called active. Inconclusive results (about 18%) are left out. This is one part of the list.
Collected normalized growth values appear next to each entry.
// keep it numeric: no unit symbol after the value

Fc1cc(I)ccc1Nc1ccnc2cc(Cl)ccc12; 0.933
N/C(Cn1ccc(C(F)(F)F)n1)=N/OS(=O)(=O)c1cccc(Cl)c1Cl; 1.01
O=[N+]([O-])c1ccc(ON=C2CCCCC2)c([N+](=O)[O-])c1; 0.88
O=C(Nc1cccc(C(F)(F)F)c1)c1cncc(C#Cc2ccccc2)c1; 0.868

Recorded normalized growth of Cc1nn(C)c(C(=O)Sc2ccc(OC(F)(F)F)cc2)c1[N+](=O)[O-] , please. 0.949

###

Test: chemical genetic growth profiling, strain panel (AID 1159580)
Conditions: S. cerevisiae deletion strains, growth OD, locus YLR039C, strain RIC1
Screen size: about 5,500 compounds; about 2,000 (36%) were called active. Not shown: some 18% with an inconclusive outcome. Cut-off read from the data, not from the text of the source: active = normalized growth mostly below about 0.91 (no sharp cut-off); inconclusive = no clear call, values can overlap the other calls; inactive = mostly above about 0.92. This is one part of the list.
Lab note: assign the record to one of class 1 = active, class 0 = inactive

// below: answered molecules
COc1ccc(C(=O)CC(=O)O)c2c1C=CC(C)(C)O2; class 0
O=C(NNC(=S)Nc1cccc(Cl)c1)c1ccncc1; class 0
CC(C)(C)S(=O)(=O)/C(C#N)=C/c1ccc(F)cc1F; class 0
NCCCS(=O)(=O)O; class 0
NS(=O)(=O)c1cc2c(cc1Cl)NC=NS2(=O)=O; class 0
CCC(C)C(=O)O[C@@H]1C[C@@]2(C)[C@H](c3ccoc3)OC(=O)CC23OC2(C)OC34[C@H](OC(=O)C(C)C)[C@@]3(O)[C@@H](OC(=O)C5(C)OC5C)[C@@]5(C)C[C@]3(O)[C@@](C)([C@H]5CC(=O)OC)C14O2 (stereo partly specified); class 0

Returns: the outcome recorded for O=S(=O)(O)CCS in this assay. class 0

Per the records of this test, what outcome belongs to O=C(NNC(=S)Nc1cccc(Cl)c1)C1CC1 ? class 1

Please indicate how the test categorized COC(=O)C[C@H]1C2(C)CC34OC5(C)O[C@@]6([C@H](OC(C)=O)C(OC(C)=O)[C@]7(C)C(/C(=C(/O)C(C)C)C(=O)O[C@H]7c7ccoc7)[C@@]6(O5)[C@H](OC(C)=O)[C@@]3(O)C2OC(=O)C(C)C)[C@]14C (stereo partly specified) . class 0

// return assay outcome for CSc1c(-c2ccccc2)c(N)nn1S(=O)(=O)c1ccccc1 class 0

Please indicate how the test categorized Cc1ccc(-c2csc(CC#N)n2)cc1C . class 1

What is the recorded call for this molecule in the test? C[n+]1c2cc(N)ccc2cc2ccc(N)cc21 class 0

Call for entry CN1C2CCC1CC(OC(c1ccccc1)c1ccccc1)C2 (stereo unspecified) : class 0

###

Test: chemical genetic growth profiling, strain panel (AID 1159580)
Conditions: S. cerevisiae deletion strains, growth OD, locus YDR054C, strain cdc34
In all, about 5,500 compounds went through this assay and about 2,000 (36%) were called active. Not shown: some 18% with an inconclusive outcome. No stated cut-off is given here; in the data, active means normalized growth mostly below about 0.91 (no sharp cut-off); inconclusive means no clear call, values can overlap the other calls; inactive means mostly above about 0.92. This is one part of the list.
The reply should name one outcome from active, inactive

These recorded examples may help you get a feel for the data.
O=C(Oc1cccc2[nH]ccc12)c1ccc(C(F)(F)F)cc1; inactive
N#C/C(=N/Nc1ccc(F)cc1)S(=O)(=O)c1ccc(Cl)cc1; inactive
O=C(Nc1cccc(C(F)(F)F)c1)c1cncc(C#Cc2ccccc2)c1; inactive
CC(C)(C)c1ccc(N/N=C(\C#N)C(N)=O)cc1; active
Fc1cc(I)ccc1Nc1ccnc2cc(Cl)ccc12; inactive
Cc1nn(C)c(C(=O)Sc2ccc(OC(F)(F)F)cc2)c1[N+](=O)[O-]; inactive

// outcome(item) with item = COc1cc(Cl)ccc1N/N=C(/C#N)C(N)=O active

Which outcome did this test record for the compound Cc1ccc(Nc2ccnc3cc(Cl)ccc23)cc1F ? inactive

Hi, sorry to bother you, what did the test record for CC(C)(C)c1ccc(C(=N)SC(C(=O)C(F)(F)F)c2ccccc2)cc1 (stereo not given) ? inactive

Field: outcome | Entry: COc1ccc(C(CC(=O)c2ccccc2)Sc2ccccc2N)cc1OC (stereo not given) inactive

###

Assay: chemical genetic growth profiling, strain panel (AID 1159580);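 further: tested at 20 µM; growth read once vehicle control cultures reached saturation at 30 °C; 1 = growth at the plate median or of vehicle wells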
Settings: S. cerevisiae deletion strains, growth OD, locus YJL092W, strain hpr5, stronger effect = lower value
In all, about 5,500 compounds went through this assay and about 2,000 (36%) were called active. Roughly 18% stayed inconclusive and do not appear here. The list shows a part of the results.
Measured normalized growth accompanies every entry in the list below.

Solved entries (count: 3):
O=S(=O)(O)c1cc(N=C=S)ccc1/C=C/c1ccc(N=C=S)cc1S(=O)(=O)O; 1.01 (inactive)
C=C[C@@](C)(O)CCC1C(=C)C[C@H](O)C2C(C)(C)CCCC12C (some centres not stated); 0.993 (inactive)
COc1ccc(-c2coc3cc(O)ccc3c2=O)cc1; 0.974 (inactive)

Form field: reported normalized growth of O=C(NC(=O)c1ccccc1Cl)Nc1ccc(OC(F)(F)F)cc1 1.03 (inactive)

// lookup normalized growth for CN1C2C[C@H](OC(=O)[C@H](CO)c3ccccc3)C[C@H]1[C@@H](O)C2 1.02 (inactive)

I have this compound here, COc1ccc(-c2coc3cc(O)ccc3c2=O)c(O)c1O , and I need its recorded normalized growth. 0.975 (inactive)

So what's the measured normalized growth for this one? COc1ccc(-c2coc3cc(O)ccc3c2=O)c(OC)c1 1 (inactive)

###

Experiment: chemical genetic growth profiling, strain panel (AID 1159580);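 further: tested at 20 µM; growth read once vehicle control cultures reached saturation at 30 °C; 1 = growth at the plate median or of vehicle wells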
Settings: S. cerevisiae deletion strains, growth OD, locus YLR357W, strain rsc2, stronger effect = lower value
Among all 5,500 compounds or so, about 2,000 (36%) were called active. Inconclusive results (about 18%) are left out. This is one part of the list.
Could you please mark Y for values of normalized growth below 1 and N for values at or above it?

COC(=O)c1cc(=O)c(O)c2c(O)c(O)ccc2c1; Y
CC1COc2c(N3CCN(C)CC3)c(F)cc3c(=O)c(C(=O)O)cn1c23 (stereo not given); Y

# input for lookup
is_below(normalized growth, 1) for CC#CC1(O)CCC2C3CCC4=CC(=O)CCC4=C3C(c3ccc(N(C)C)cc3)CC21C (stereo not given) ? N

###

Assay: chemical genetic growth profiling, strain panel (AID 1159580);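 further: tested at 20 µM; growth read once vehicle control cultures reached saturation at 30 °C; 1 = growth at the plate median or of vehicle wells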
Details: S. cerevisiae deletion strains, growth OD, locus YLR102C, strain apc9
Out of some 5,500 compounds screened, about 2,000 (36%) were called active. Another 18% or so got no clear call; they are omitted. Cut-off read from the data, not from the text of the source: active = normalized growth mostly below about 0.91 (no sharp cut-off); inconclusive = no clear call, values can overlap the other calls; inactive = mostly above about 0.92. This is one part of the list.
Valid outcomes are listed here; reply with one: True = active, False = inactive

# example entries with known answers
NCCC(O)C(=O)NC1CC(N)C(OC2OC(CN)C(O)C(O)C2N)C(OC2OC(CO)C(O)C2O)C1O (stereo not given); False
CCn1cc(C(=O)O)c(=O)c2cc(F)c(N3CCNCC3)nc21; False
COC(=O)C[C@H]1C2(C)CC34OC5(C)O[C@@]6([C@H](OC)C(OC(=O)C(C)C)[C@]7(C)C(/C(=C(/OC)C(C)C)C(=O)O[C@H]7c7ccoc7)[C@@]6(O5)[C@H](OC)[C@@]3(OC)C2OC(C)=O)[C@]14C (stereo not given in full); False
C#CCN(C)Cc1ccccc1; False
CC[C@@H](C(=O)C(C)[C@@H](O)[C@H](C)CCc1ccc(C)c(O)c1C(=O)O)C1OC(CC)(C2CC[C@](O)(CC)[C@H](C)O2)C[C@@H]1C (stereo not given in full); False
CC1COc2c(N3CCN(C)CC3)c(F)cc3c(=O)c(C(=O)O)cn1c23 (stereo not given); False
C[n+]1c2cc(N)ccc2cc2ccc(N)cc21; True
CCC(C)C(=O)O[C@@H]1C[C@@]2(C)[C@H](c3ccoc3)OC(=O)CC23OC2(C)OC34[C@H](OC(=O)C(C)C)[C@@]3(O)[C@@H](OC(=O)C5(C)OC5C)[C@@]5(C)C[C@]3(O)[C@@](C)([C@H]5CC(=O)OC)C14O2 (stereo not given in full); False
O=C(O)c1cc2cc(F)ccc2[nH]1; False
COc1ccc(-c2coc3cc(O)ccc3c2=O)c(OC)c1; False

Returns: the outcome recorded for COC(=O)CC1C2(C)CC34OC5(C)OC6(C7/C(=C(/O)C(C)C)C(=O)OC(c8ccoc8)C7(C)C(OC(=O)C(C)C)C(OC)C6(O5)C13C)C(OC)C4(OC)C2OC(C)=O (stereo not given) in this assay. False

Hey, what did the test say about CC1CCc2cc(F)cc3c(=O)c(C(=O)O)cn1c23 (stereo not given) ? False

Hi, sorry to bother you, what did the test record for COC(=O)C[C@H]1C2(C)CC34OC5(C)O[C@@]6([C@H](OC(C)=O)C(OC(C)=O)[C@]7(C)C(/C(=C(/O)C(C)C)C(=O)O[C@H]7c7ccoc7)[C@@]6(O5)[C@H](OC(C)=O)[C@@]3(O)C2OC(=O)C(C)C)[C@]14C (stereo not given in full) ? False

Can you look up the reported call for COc1cc2nc(N(C)CCCNC(=O)C3CCCO3)nc(N)c2cc1OC (stereo not given) for me? False

Give the logged outcome of this assay for the following compound: O=c1c(-c2ccc(O)cc2)coc2cc(O)ccc12 False

Status in this test for COc1ccc(OC)c(C(O)CNC(=O)CN)c1 (stereo not given) ? False

How did this test come out for COc1ccc(-c2coc3cc(O)ccc3c2=O)c(OC)c1O ? False

What call does the record list for COc1ccccc1-c1coc2cc(O)ccc2c1=O ? False

Write down the call the test reported for this compound. Item: CCCCNC(=O)NS(=O)(=O)c1ccc(C)cc1 False

Per the records of this test, what outcome belongs to CCN(CC)C(=O)N1CCN(C)CC1 ? False

Which outcome was assigned to COc1ccc(-c2coc3cc(OC)ccc3c2=O)cc1 in this test? False

Outcome? CN1C2C[C@H](OC(=O)[C@H](CO)c3ccccc3)C[C@H]1[C@@H](O)C2 False

For NS(=O)(=O)c1cc2c(cc1Cl)NC=NS2(=O)=O , what call appears in the results of this test? False

Recorded test outcome, item CCC[C@H](N[C@@H](C)C(=O)N1[C@H](C(=O)O)C[C@@H]2CCCC[C@@H]21)C(=O)OCC False

Which outcome did this test record for the compound CCC(C)C(=O)OC1CC2(C)C(c3ccoc3)OC(=O)CC23OC2(C)OC34C(OC(=O)C(C)C)C3(O)C(OC(=O)C5(C)OC5C)C5(C)CC3(O)C(C)(C5C(=O)OC)C14O2 (stereo not given) ? False
